Would you kindly list inhibition for each of these compounds?
testTarget: Sulfhydryl oxidase 1 (Homo sapiens) (UniProt O00391)
Sequence (O00391 whole entry, looked up): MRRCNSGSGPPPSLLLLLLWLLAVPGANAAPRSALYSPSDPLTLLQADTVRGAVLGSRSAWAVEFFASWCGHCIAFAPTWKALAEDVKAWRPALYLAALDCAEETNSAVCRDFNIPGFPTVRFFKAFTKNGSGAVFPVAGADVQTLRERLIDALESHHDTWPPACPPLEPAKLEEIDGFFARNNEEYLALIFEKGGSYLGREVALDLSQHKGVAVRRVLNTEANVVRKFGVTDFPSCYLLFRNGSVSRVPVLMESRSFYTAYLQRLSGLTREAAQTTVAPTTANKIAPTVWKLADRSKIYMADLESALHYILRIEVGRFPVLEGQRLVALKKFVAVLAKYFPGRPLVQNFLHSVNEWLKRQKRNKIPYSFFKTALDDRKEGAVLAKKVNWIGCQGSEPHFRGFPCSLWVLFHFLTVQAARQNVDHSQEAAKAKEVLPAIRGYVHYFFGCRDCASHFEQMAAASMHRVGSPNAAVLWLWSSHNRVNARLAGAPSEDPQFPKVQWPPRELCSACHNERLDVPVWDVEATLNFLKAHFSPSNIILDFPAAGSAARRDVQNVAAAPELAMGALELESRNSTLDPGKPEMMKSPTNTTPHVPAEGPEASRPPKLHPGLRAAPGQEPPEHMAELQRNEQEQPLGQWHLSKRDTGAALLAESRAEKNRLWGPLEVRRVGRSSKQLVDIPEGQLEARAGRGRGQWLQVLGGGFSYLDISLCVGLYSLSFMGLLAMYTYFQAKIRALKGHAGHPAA
experiment: QSOX1 enzyme inhibitors, primary screen, biochemical, ROS-Glo H2O2 luminescence, HTS (AID 1347418)
experimentalConditions: recombinant QSOX1, ROS-Glo H2O2 luminescence; at 12.5 µM; stronger effect = higher value; active = any value above zero
Out of some 1,300 compounds screened, about 750 (58%) were called active. This is one part of the list.
Report as a plain number; the unit % is understood.

Recorded inhibition for "CS(=O)(=O)Nc1ccc([N+](=O)[O-])cc1Oc1ccccc1" , please? -0.8

Recorded inhibition for "O=C(O)/C=C/c1ccc(O)c(O)c1" , please? 9.6

Recorded inhibition for "C#CCCN" , please? 0.1

Recorded inhibition for "O=C(Nc1ccc([N+](=O)[O-])cc1Cl)c1cc(Cl)ccc1O" , please? 8

Recorded inhibition for "O=C(/C=C/c1ccc(O)c(O)c1)OCCc1ccccc1" , please? 19.7

Recorded inhibition for "CN/C(=C\[N+](=O)[O-])NCCSCc1ccc(CN(C)C)o1" , please? -12.3

Recorded inhibition for CSc1ccc2c(c1)C(N1CCN(C)CC1)Cc1ccccc1S2 (stereo not given) , please? -0.9

Recorded inhibition for "CN1CC(=O)N/C1=N\C(=O)Nc1cccc(Cl)c1" , please? -0.1

Recorded inhibition for CC1COc2c(N3CCN(C)CC3)c(F)cc3c(=O)c(C(=O)O)cn1c23 (stereo not given) , please? -1.5

Recorded inhibition for "CCCCCCCCCCC(C)(C)C(=O)Nc1c(OC)cc(OC)cc1OC" , please? -1

###

Would you kindly list inhibition for each of these molecules?
testTarget: Sulfhydryl oxidase 1 (Homo sapiens)
experiment: QSOX1 enzyme inhibitors, primary screen, biochemical, ROS-Glo H2O2 luminescence, HTS (AID 1347418)
experimentalConditions: recombinant QSOX1, ROS-Glo H2O2 luminescence; at 12.5 µM; stronger effect = higher value; active = any value above zero
About 750 (58%) of roughly 1,300 compounds were called active. The list shows a part of the results.
Report as a plain number; the unit % is understood.

Recorded inhibition for Nc1nc(O)c2nc(Br)n(C3OC4COP(=O)(O)O[C@@H]4C3O)c2n1 (stereo not given in full) , please? -4.7

Recorded inhibition for "Cn1c(=O)[nH]c2ncn(C)c2c1=O" , please? 3

Recorded inhibition for "CC1=C(/C=C/C(C)=C/C=C/C(C)=C/C(=O)O)C(C)(C)CCC1" , please? 2.4

Recorded inhibition for "NC(=O)c1cc[n+](CC2=C(C(=O)O)N3C(=O)[C@@H](NC(=O)[C@@H](c4ccccc4)S(=O)(=O)[O-])[C@H]3SC2)cc1" , please? -1

Recorded inhibition for CC1=C(C(=O)O)N2C(=O)[C@@H](NC(=O)C(N)C3=CCC=CC3)[C@H]2SC1 (stereo not given in full) , please? -1.3

Recorded inhibition for "O=C(O)C1=CCNCC1" , please? -1.6

Recorded inhibition for "CCCc1c(OCCCOc2ccc(OCC(=O)O)cc2)ccc(C(C)=O)c1O" , please? 4.1

Recorded inhibition for NC(C(=O)N[C@@H]1C(=O)N2C(C(=O)O)=C(Cl)CS[C@H]12)c1ccccc1 (stereo not given in full) , please? 0.4

Recorded inhibition for "Cn1cnc2c1c(=O)[nH]c(=O)n2C" , please? 3.2

Recorded inhibition for "CCCCCCN(CCCCCC)C(=O)Cc1c(-c2ccc(F)cc2)[nH]c2ccccc12" , please? -2.9

Origin of the recorded values: PubChem BioAssay AID1347418
